Entry source: patent US8802678B2

Overview of recorded melting point for various compounds
measured.property: melting point (°C)

CCc1cccc(N2CCN(CC[C@H]3CC[C@H](NC(=O)CCCC#N)CC3)CC2)c1.Cl : 205
O=C(CC(F)(F)F)N[C@H]1CC[C@H](CCN2CCN(c3cccc(F)c3)CC2)CC1 [Example 409] : 195
CCOC(=O)CN1CCC(CCN2CCN(c3cccc(C)c3C)CC2)CC1 [Example 533] : 82
CCOCC(=O)N[C@H]1CC[C@H](CCN2CCN(c3ccc(OC)cc3)CC2)CC1 [Example 572] : 132
O=C(N[C@H]1CC[C@H](CCN2CCN(c3cccc(F)c3F)CC2)CC1)C1=CCCC1 [Example 447] : 225
Cl.N#CCCC(=O)N1CCC(CCN2CCN(c3cc(Cl)cc(C(F)(F)F)c3)CC2)CC1 : 128
N#CCCC(=O)N[C@H]1CC[C@H](CCN2CCN(c3ccc(Cl)c(Cl)c3F)CC2)CC1 [Example 720] : 210
CC(=O)CN1CCC(CCN2CCN(c3cc(Cl)ccc3Cl)CC2)CC1.Cl.Cl : 172
CCc1cccc(C2=CCN(CC[C@H]3CC[C@H](NC(=O)CCCC#N)CC3)CC2)c1 : 147
CC(=O)CC1CCC(CCN2CCN(c3cccc(C(F)(F)F)c3)CC2)CC1.Cl (stereo not drawn) : 160
COc1cccc(N2CCN(CC[C@H]3CC[C@H](NC(=O)CCC#N)CC3)CC2)c1 [Example 418] : 140
CS(=O)(=O)c1cccc(N2CCN(CC[C@H]3CC[C@H](NC(=O)CC#N)CC3)CC2)c1 [Example 351] : 195
COCCCC(=O)N[C@H]1CC[C@H](CCN2CCN(c3ccc(F)c(C#N)c3F)CC2)CC1 [Example 692] : 211
N#CCCCC(=O)N[C@H]1CC[C@H](CCN2CCN(c3ccccc3F)CC2)CC1 [Example 204] : 170
N#CCCCC(=O)N[C@H]1CC[C@H](CCN2CCc3cc(C#N)ccc3C2)CC1 [Example 558] : 177
Cc1c(F)cccc1N1CCN(CC[C@H]2CC[C@H](NC(=O)CCCC#N)CC2)CC1 [Example 356] : 159
N#CCC(=O)N[C@H]1CC[C@H](CCN2CC=C(c3cccc(C#N)c3)CC2)CC1 : 185
